// provenance: paper PMC8600679

# TESTED TARGET: Atlantic cod Ahr1a (Gadus morhua)
# Sequence (A0A6H1Z2L5 1-957): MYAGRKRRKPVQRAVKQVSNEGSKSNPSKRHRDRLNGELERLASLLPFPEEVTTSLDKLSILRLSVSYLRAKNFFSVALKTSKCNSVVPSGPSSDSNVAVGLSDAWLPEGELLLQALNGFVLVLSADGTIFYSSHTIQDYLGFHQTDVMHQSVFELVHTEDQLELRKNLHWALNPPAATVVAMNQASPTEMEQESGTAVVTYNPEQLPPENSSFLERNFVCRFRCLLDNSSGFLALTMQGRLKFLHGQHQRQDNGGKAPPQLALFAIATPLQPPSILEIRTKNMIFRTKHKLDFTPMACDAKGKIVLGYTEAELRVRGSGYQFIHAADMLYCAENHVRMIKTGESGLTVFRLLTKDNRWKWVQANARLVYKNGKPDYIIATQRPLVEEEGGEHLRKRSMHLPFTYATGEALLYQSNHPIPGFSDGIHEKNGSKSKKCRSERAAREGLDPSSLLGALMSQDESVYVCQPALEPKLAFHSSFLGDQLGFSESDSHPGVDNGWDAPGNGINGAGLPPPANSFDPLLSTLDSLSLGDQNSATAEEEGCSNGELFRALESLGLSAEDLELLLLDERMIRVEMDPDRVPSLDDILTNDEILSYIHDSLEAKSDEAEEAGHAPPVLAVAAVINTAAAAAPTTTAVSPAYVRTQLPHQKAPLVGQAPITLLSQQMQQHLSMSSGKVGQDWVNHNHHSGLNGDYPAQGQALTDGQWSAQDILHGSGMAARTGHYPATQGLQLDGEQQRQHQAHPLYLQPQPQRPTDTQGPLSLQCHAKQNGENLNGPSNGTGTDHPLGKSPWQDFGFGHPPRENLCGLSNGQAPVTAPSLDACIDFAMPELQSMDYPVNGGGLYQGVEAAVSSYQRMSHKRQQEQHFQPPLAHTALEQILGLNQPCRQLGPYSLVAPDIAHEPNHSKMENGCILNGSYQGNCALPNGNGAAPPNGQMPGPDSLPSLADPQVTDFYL
# Sequence (A0A8C5CZZ9 1-645 partner): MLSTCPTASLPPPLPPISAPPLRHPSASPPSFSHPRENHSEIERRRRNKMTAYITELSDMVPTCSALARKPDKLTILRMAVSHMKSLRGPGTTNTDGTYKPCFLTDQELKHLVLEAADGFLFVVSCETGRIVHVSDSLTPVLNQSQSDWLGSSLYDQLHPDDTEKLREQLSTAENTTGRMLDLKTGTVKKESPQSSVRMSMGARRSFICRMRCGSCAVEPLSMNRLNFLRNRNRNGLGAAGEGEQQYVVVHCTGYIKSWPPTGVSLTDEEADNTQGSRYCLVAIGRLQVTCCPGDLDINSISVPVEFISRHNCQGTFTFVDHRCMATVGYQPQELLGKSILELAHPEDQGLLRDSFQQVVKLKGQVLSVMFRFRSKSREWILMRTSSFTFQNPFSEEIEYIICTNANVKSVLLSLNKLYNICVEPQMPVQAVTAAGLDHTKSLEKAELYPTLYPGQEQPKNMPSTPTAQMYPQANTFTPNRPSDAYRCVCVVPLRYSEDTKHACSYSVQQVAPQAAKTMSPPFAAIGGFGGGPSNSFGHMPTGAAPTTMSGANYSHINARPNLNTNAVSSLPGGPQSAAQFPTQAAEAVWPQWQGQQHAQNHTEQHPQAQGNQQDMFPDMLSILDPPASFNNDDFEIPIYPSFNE
# PROCEDURE SUMMARY: cell-based
# EXPERIMENTAL CONDITIONS: EC25 of TCDD divided by concentration of PAC giving 25% of TCDD response
METRIC NAME: Ahr1a REP25
Respond with the number and no other words.

Guide cases for Ahr1a REP25, answers given:
* O[C@@H]1C=Cc2c(ccc3ccccc23)[C@H]1O [R,R-1,2-DHP, (1R,2R)-1.2-Dihydrophenanthrene-1,2-diol] | 0.00002
* c1ccc2c(c1)ccc1c3ccccc3ccc21 | 0.00052

Quick note, Ahr1a REP25 for `Cc1cccc2c1ccc1c3ccccc3ccc21` landed at 0.0070

Quick note, Ahr1a REP25 for `Cc1cc2c3ccccc3ccc2c2ccccc12` landed at 0.00064

Quick note, Ahr1a REP25 for `Oc1cccc2c1ccc1c3ccccc3ccc21` landed at 0.0045

Quick note, Ahr1a REP25 for `Oc1cccc2ccc3c4ccccc4ccc3c12` landed at 0.00105

Quick note, Ahr1a REP25 for `COc1cccc2c1ccc1c3ccccc3ccc21` landed at 0.0277

Quick note, Ahr1a REP25 for c1ccc2c(c1)cc1ccc3cccc4ccc2c1c34 [BAP, Benzo[a]pyrene] landed at 0.0956

Quick note, Ahr1a REP25 for `Cc1cc2ccccc2c2ccc3ccccc3c12` landed at 0.00494

Quick note, Ahr1a REP25 for `Cc1ccc2c(ccc3c4ccccc4ccc23)c1` landed at 0.324
